System: COX-1
Method: COX-1 inhibitory activity (Table 3)
Format: biochemical
Design: dose or concentration left out as unconfirmed
Listed below: COX-1 (% inhibition) values for each entry.
Readout Label: COX-1 (% inhibition)

> print(dat)
                                    molecule  value.reported
 1  CS(=O)(=O)c1ccc(-n2nc(CCCNC(=O)Nc3cccc(C(F)(F)F)c3)cc2-c2ccccc2)cc1 [compound 1862]            6.4%
 2  NS(=O)(=O)c1ccc(-n2nc(CCCNC(=O)Nc3ccc(OC(F)(F)F)cc3)cc2-c2ccccc2)cc1 [compound 2329]           13.8%
 3  NS(=O)(=O)c1ccc(-n2nc(NC(=O)Nc3cccc(C(F)(F)F)c3)cc2-c2ccccc2)cc1 [compound 2121]           33.9%
 4  NS(=O)(=O)c1ccc(-n2nc(CCCNC(=O)Nc3ccc(Cl)cc3)cc2-c2ccccc2)cc1 [compound 2327]           15.2%
 5  NS(=O)(=O)c1ccc(-n2nc(CCNC(=O)Nc3cccc(C(F)(F)F)c3)cc2-c2ccccc2)cc1 [compound 2313]           22.0%
 6  CS(=O)(=O)c1ccc(-n2nc(CNC(=O)Nc3cccc(C(F)(F)F)c3)cc2-c2ccccc2)cc1 [compound 1861]            7.8%
 7  NS(=O)(=O)c1ccc(-n2nc(CCCNC(=O)NC34CC5CC(CC(C5)C3)C4)cc2-c2ccccc2)cc1 [compound 2326]            6.7%
 8  Cc1ccc(-c2cc(CCCNC(=O)Nc3cccc(C(F)(F)F)c3)nn2-c2ccc(S(N)(=O)=O)cc2)cc1 [compound 2152]           12.1%
 9  CC(C)(C)c1cc(CNC(=O)Nc2cccc(C(F)(F)F)c2)nn1-c1ccc(S(C)(=O)=O)cc1 [compound 2106]            2.4%
10  CS(=O)(=O)c1ccc(-n2nc(CNC(=O)Nc3ccc(OC(F)(F)F)cc3)cc2-c2ccccc2)cc1 [compound 2323]           10.4%
11  CS(=O)(=O)c1ccc(-n2nc(CNC(=O)Nc3ccc(C(F)(F)F)cc3)cc2-c2ccccc2)cc1 [compound 2324]           10.7%
12  CC(C)c1cccc(C(C)C)c1NC(=O)NCCCc1cc(-c2ccccc2)n(-c2ccc(S(N)(=O)=O)cc2)n1 [compound 2325]            6.2%
13  NS(=O)(=O)c1ccc(-n2nc(CCCNC(=O)Nc3ccccc3)cc2-c2ccccc2)cc1 [compound 2245]           15.8%
14  CS(=O)(=O)c1ccc(-n2nc(CNC(=O)NC34CC5CC(CC(C5)C3)C4)cc2-c2ccccc2)cc1 [compound 1860]           12.7%
15  NS(=O)(=O)c1ccc(-n2nc(CCCNC(=O)NC3CCCCCC3)cc2-c2ccccc2)cc1 [compound 2247]           10.2%

====

System: COX-1
Method: COX-1 inhibitory activity (Table 3)
Type: biochemical
Parameters: dose or concentration left out as unconfirmed
Readout Label: COX-1 (% inhibition) (%)

> print(dat)
                                 cpd.smiles  value.reported
1  CS(=O)(=O)c1ccc(-n2nc(CNC(=O)NC3CCCCCC3)cc2-c2ccccc2)cc1             3.4
2  NS(=O)(=O)c1ccc(-n2nc(CCCNC(=O)Nc3cccc(C(F)(F)F)c3)cc2-c2ccccc2)cc1            27.2
3  NS(=O)(=O)c1ccc(-n2nc(CNC(=O)Nc3cccc(C(F)(F)F)c3)cc2-c2ccccc2)cc1            16.9
4  NS(=O)(=O)c1ccc(-n2nc(CCCNC(=O)Nc3ccc(C(F)(F)F)cc3)cc2-c2ccccc2)cc1            22.7
